Read-out: matrix metalloproteinase-3 (MMP3), MMP3 (gene 4314)
Experiment summary: LTEA_HepaRG_MMP3: Life Technologies and Expression Analysis (LTEA) Assay for matrix metalloproteinase-3 (MMP3) using HepaRG (AID 2283519)
Recorded conditions: mRNA level, 48 h; actives raise or lower the signal
The source made the active and inactive calls. How the source made its calls: active means hit-call score of the fitted dose curve at least 0.9, where 1 is the maximum; inactive means score below 0.9.
Value kind: AC50

Look over these answered cases.
INSERT INTO results (molecule, value_kind, recorded_result) VALUES
  ('CCOP(=O)(SC(C)CC)N1CCSC1=O (stereo unspecified)', 'AC50', 'inactive'),
  ('CCCCN(CC)c1c([N+](=O)[O-])cc(C(F)(F)F)cc1[N+](=O)[O-]', 'AC50', 'inactive'),
  ('Nc1c(Cl)cc([N+](=O)[O-])cc1Cl', 'AC50', 'inactive'),
  ('CCCCOC(=O)[C@@H](C)Oc1ccc(Oc2ccc(C#N)cc2F)cc1', 'AC50', 'inactive'),
  ('CSC1=N[C@@](C)(c2ccccc2)C(=O)N1Nc1ccccc1', 'AC50', 'inactive'),
  ('CC(=NC#N)N(C)Cc1ccc(Cl)nc1', 'AC50', 'inactive');

For each entry beneath this line, provide reported AC50.
1. CCCOc1nn(C(=O)NS(=O)(=O)c2ccccc2C(=O)OC)c(=O)n1C
2. Nc1nc(N)nc(NC2CC2)n1
3. CCOP(=S)(OCC)Oc1ccc2c(C)c(Cl)c(=O)oc2c1
4. COc1cccc(C(=O)NN(C(=O)c2cc(C)cc(C)c2)C(C)(C)C)c1C
5. C[N+]1(C)CCCCC1
6. C[Si](Cn1cncn1)(c1ccc(F)cc1)c1ccc(F)cc1

Out:
1. inactive
2. inactive
3. inactive
4. inactive
5. inactive
6. 11.6 µM (active)

---

Experiment summary: IUF_NPC1a_proliferation_area_72hr: Leibniz Research Institute for Environmental Medicine (IUF) 72-hour Neural Progenitor Cell Proliferation Area Assay (NPC1a) (AID 2284208)
Active and inactive are the calls of the source. How the source made its calls: active means hit-call score of the fitted dose curve at least 0.9, where 1 is the maximum; inactive means score below 0.9.
Value kind: AC50

Look over these answered cases.
INSERT INTO measurements (molecule, recorded_result) VALUES
  ('CN(C)[C@@H]1C(=O)C(C(N)=O)=C(O)[C@@]2(O)C(=O)C3=C(O)c4c(O)cccc4[C@@](C)(O)[C@H]3[C@H](O)[C@@H]12', 'inactive'),
  ('CC(=NC#N)N(C)Cc1ccc(Cl)nc1', 'inactive'),
  ('COP(=O)(OC)C(O)C(Cl)(Cl)Cl (configuration not stated)', 'inactive'),
  ('S=C1NCCN1', 'inactive'),
  ('O=[N+]([O-])c1cc(C(F)(F)F)c(Cl)c([N+](=O)[O-])c1Nc1ncc(C(F)(F)F)cc1Cl', '7.56 µM (active)');

For each entry beneath this line, provide reported AC50.
1. CCOC(=O)CC(SP(=O)(OC)OC)C(=O)OCC (configuration not stated)
2. CCOP(=S)(Oc1cnc(C(C)(C)C)nc1)OC(C)C (configuration not stated)
3. COP(=O)(OC)OC(Br)C(Cl)(Cl)Br (configuration not stated)
4. COP(=O)(NC(C)=O)SC (configuration not stated)
5. CCOP(=S)(OCC)Oc1cc(C)nc(C(C)C)n1

Out:
inactive
inactive
26.6 µM (active)
inactive
inactive

For each entry beneath this line, provide reported AC50.
1. CCCSP(=O)(OCC)SCCC
2. CON=C(C(=O)OC)c1ccccc1CON=C(C)c1cccc(C(F)(F)F)c1

Out:
["inactive", "9.57 µM (active)"]
